Target: Tryptophan 5-hydroxylase 1 (Rattus norvegicus) (UniProt P09810)
Sequence (P09810 whole entry): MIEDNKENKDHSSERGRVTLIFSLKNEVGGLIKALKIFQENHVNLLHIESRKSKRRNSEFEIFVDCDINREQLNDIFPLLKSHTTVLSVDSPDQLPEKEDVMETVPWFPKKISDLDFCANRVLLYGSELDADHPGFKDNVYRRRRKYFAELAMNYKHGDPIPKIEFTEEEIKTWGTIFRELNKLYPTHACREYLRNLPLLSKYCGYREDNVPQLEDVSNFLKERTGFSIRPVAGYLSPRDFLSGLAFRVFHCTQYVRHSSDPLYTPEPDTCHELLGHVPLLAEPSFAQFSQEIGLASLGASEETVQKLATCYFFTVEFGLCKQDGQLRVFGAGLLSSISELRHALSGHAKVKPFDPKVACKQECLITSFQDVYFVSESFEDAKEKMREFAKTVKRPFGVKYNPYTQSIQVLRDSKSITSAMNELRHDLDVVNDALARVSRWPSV
Experiment: Tested in isolated enzyme assay for its cofactor activity against tryptophan hydroxylase (isolated from rat brain stem) expressed as relative velocity
MEASURED_ATTRIBUTE: Relative velocity (%)
Expressed in %, but write only the number.

[
  {
    "MOLECULE": "CC(O)C(O)C1CNc2nc(N)nc(O)c2N1 (centres undefined)",
    "MEASURED_ATTRIBUTE": "Relative velocity",
    "VALUE": 100
  }
]

What does the data say about its Relative velocity? Entry: CCCCCCCCOCC1CNc2nc(N)nc(O)c2N1 (centres undefined)
32

I have this molecule here, COCC1CNc2nc(N)nc(O)c2N1 (centres undefined) , and I need its recorded Relative velocity.
65

Return reported Relative velocity; argument: CC1(C)CNc2nc(N)nc(O)c2N1
40

Which measured Relative velocity value corresponds to CCCOCC1CNc2nc(N)nc(O)c2N1 (centres undefined) ?
54

Request the reported Relative velocity associated with CC(C)OCC1CNc2nc(N)nc(O)c2N1 (centres undefined)
44

# get_value(readout='Relative velocity', item= CCCCOCC1CNc2nc(N)nc(O)c2N1 (centres undefined) )
52

I would be grateful if you could share the reported Relative velocity for CC1CNc2nc(N)[nH]c(=O)c2N1 (centres undefined) .
154

Using the record for CCOCC1CNc2nc(N)nc(O)c2N1 (centres undefined) , report its Relative velocity.
85
